This listing pairs molecules with measured Inhibition.
Tested on: Cryptococcus neoformans
Conditions: Concentration 20 uM; ASSAY_TEST Inhibition of Fungal Growth; detection method Resazurin; Absorption (OD600-OD570); plate type 384well; NBS; CORNING #3640
Description: Antifungal activity against Cryptococcus neoformans H99 ATCC 208821 (CO-ADD:FG_002); MIC in YNB media using NBS plates, by Resazurin OD(600-570)
Entries with a potency or affinity are not part of this list.
Mention the unit after the number when you answer.

# query: Inhibition | item CN(C)c1ccc(/C=N/NC(=O)c2cnc3ccccc3c2)cc1 | system: Cryptococcus neoformans
3.68%

# query: Inhibition | item N#CCS(=O)(=O)c1cccc[n+]1[O-] | system: Cryptococcus neoformans
-4.09%

# query: Inhibition | item CCOc1ccc(NC(=O)N(O)C2(C#N)CCCCC2)cc1 | system: Cryptococcus neoformans
-2.32%

# query: Inhibition | item CC(=O)Oc1ccc(OC(C)=O)c2c1CC(C)=C(C)C2 | system: Cryptococcus neoformans
-18.35%

# query: Inhibition | item CCOC(=O)C(Cc1ccc(O)cc1)Nc1nc2ccccc2o1 (stereo unspecified) | system: Cryptococcus neoformans
8.22%

# query: Inhibition | item Cc1ccc(S(=O)(=O)CCOC(=O)CNC(=O)OCc2ccccc2)cc1 | system: Cryptococcus neoformans
-8.5%

* * *

This listing pairs compounds with measured Inhibition.
System: Klebsiella pneumoniae
Settings: Concentration 20 uM; ASSAY_TEST Inhibition of Bacterial Growth; detection method Absorption (OD600); MEDIA CAMHB; plate type 384well; NBS; CORNING #3640; time 18 hr
Description: Antibacterial activity against Klebsiella pneumoniae MDR ATCC 70063 (CO-ADD:GN_003); MIC in CAMBH media using NBS plates, by OD(600)
Potency and affinity values are given separately.
Please respond with the number in % and leave the unit unwritten.

# query: Inhibition | item Nc1ccn(C2OC(CCl)C(O)C2O)c(=O)n1 (stereo not drawn) | system: Klebsiella pneumoniae
13.7

# query: Inhibition | item COc1ccc2c(=O)cc(-c3cccnc3)oc2c1OC | system: Klebsiella pneumoniae
26.45

# query: Inhibition | item NCC(=O)Nc1ccc(Cl)cc1C(=O)c1ccc[nH]1 | system: Klebsiella pneumoniae
6.27

# query: Inhibition | item O=C(Nc1ccc(O)c(C(=O)O)c1)Oc1ccccc1 | system: Klebsiella pneumoniae
11.35

# query: Inhibition | item COc1ccccc1/C=C(\C#N)C(=O)O | system: Klebsiella pneumoniae
6.46

# query: Inhibition | item COc1ccc(/C=C2/CCOC2=O)cc1 | system: Klebsiella pneumoniae
6.07

# query: Inhibition | item COc1ccc(NC(=O)CC(C)=O)c(OC)c1 | system: Klebsiella pneumoniae
22.3

# query: Inhibition | item Clc1ccc2nc3ccccc3cc2c1 | system: Klebsiella pneumoniae
9.96

# query: Inhibition | item COc1cc(NC(C)=O)c2ncccc2c1Br | system: Klebsiella pneumoniae
15.6

* * *

Test system: Cryptococcus neoformans
Details: Concentration 20 uM; ASSAY_TEST Inhibition of Fungal Growth; detection method Resazurin; Absorption (OD600-OD570); plate type 384well; NBS; CORNING #3640
Entries with a potency or affinity are not part of this list.
experimental endpoint: Inhibition
Mention the unit after the number when you answer.

Example molecules with recorded Inhibition:
{"molecule": "CCOC(=O)C(=Cc1ccc(Br)cc1)C(=O)OCC", "Inhibition": "-1.07%"}
{"molecule": "O=C1CSC(c2cccs2)N1c1nncs1 (stereo not given)", "Inhibition": "-10.32%"}
{"molecule": "O=[N+]([O-])c1ccccc1CSc1nc(O)c2nc[nH]c2n1", "Inhibition": "-13.62%"}
{"molecule": "Nc1ccc(C(=O)Nc2ccc(NC(=O)c3ccco3)c(O)c2)cc1", "Inhibition": "-8.99%"}
{"molecule": "COC1C(=O)CCC2(CO2)C1(O)C1(C)OC1CC=C(C)C (stereo not given)", "Inhibition": "-9.09%"}

Recorded Inhibition of COC1OC(CO)C(N=C(C)C)C1O (stereo not given) , please.
-10.33%

Recorded Inhibition of c1ccc2[nH]c(-c3ccncc3)nc2c1 , please.
-8.67%

Recorded Inhibition of Cc1nc(Br)c(Br)c(C)c1Br , please.
-9.77%

Recorded Inhibition of CC(=O)OC1COC(OC(C)=O)CO1 (stereo not given) , please.
10.42%

Recorded Inhibition of CCOP(=O)(OCC)/C(C#N)=C/c1ccc([N+](=O)[O-])cc1 , please.
-11.85%
